target_desc: Gastrin/cholecystokinin type B receptor (Mus musculus, UniProt P56481)
Sequence (P56481 whole entry): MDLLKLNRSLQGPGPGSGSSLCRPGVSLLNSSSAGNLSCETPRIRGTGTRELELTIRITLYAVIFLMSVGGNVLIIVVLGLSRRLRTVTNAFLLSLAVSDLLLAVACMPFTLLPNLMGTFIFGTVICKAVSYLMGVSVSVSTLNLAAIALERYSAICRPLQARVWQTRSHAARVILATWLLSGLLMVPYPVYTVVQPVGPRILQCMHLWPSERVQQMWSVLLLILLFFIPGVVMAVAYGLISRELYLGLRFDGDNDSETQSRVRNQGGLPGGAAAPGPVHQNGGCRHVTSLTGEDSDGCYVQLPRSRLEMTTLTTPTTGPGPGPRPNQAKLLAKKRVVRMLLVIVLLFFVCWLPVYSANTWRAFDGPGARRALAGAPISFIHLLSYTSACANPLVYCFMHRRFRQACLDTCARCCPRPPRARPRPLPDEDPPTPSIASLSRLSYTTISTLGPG
pIC50: −log10 of the molar value.
This listing pairs compounds with measured pIC50.

| test_smiles | pIC50 |
| --- | --- |
| CC(C)Oc1cccc(-n2c(CNC(=O)NCc3ccc(Br)cc3)nc3ccccc3c2=O)c1 | 6.19 |
| CC(C)Oc1cccc(-n2c(CNC(=S)Nc3ccc(Br)cc3)nc3ccccc3c2=O)c1 | 5.10 |
| CCOC(=O)c1cccc(NC(=O)NCc2nc3ccccc3c(=O)n2-c2cccc(OC(C)C)c2)c1 | 6.90 |
| CC(C)Oc1cccc(-n2c(CNC(=O)Nc3ccc(Br)cc3)nc3ccccc3c2=O)c1 | 6.86 |
| CC(C)Oc1cccc(-n2c(CCNC(=O)Nc3ccc(Br)cc3)nc3ccccc3c2=O)c1 | 6.23 |

Where do these numbers come from? They come from ChEMBL document CHEMBL1129889.
